Recorded measurements of log10(IC50), one per entry
Target: Cox-2 enzyme (Ovis aries)
Sequence (P79208 17-603): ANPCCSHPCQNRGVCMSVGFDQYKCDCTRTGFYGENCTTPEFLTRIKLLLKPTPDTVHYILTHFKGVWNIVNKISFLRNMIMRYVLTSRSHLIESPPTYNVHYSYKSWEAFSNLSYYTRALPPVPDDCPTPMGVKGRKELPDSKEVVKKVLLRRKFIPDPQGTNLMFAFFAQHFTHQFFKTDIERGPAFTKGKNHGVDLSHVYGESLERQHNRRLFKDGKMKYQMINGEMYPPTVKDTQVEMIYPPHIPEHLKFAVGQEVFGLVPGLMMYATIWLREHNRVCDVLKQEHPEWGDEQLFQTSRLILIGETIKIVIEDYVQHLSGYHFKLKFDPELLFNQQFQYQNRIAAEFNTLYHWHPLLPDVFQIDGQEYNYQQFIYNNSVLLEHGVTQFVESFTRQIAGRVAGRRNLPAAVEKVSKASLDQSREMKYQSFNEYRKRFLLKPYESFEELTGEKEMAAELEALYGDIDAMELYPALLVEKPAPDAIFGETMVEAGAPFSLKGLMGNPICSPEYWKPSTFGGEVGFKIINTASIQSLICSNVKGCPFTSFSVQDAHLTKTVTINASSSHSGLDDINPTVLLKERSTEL
Transform log10 | Measure IC50 | Unit nM

Examples with their reported log10(IC50) follow.
CC(C)(C)c1cc(C(=O)N2CC(Br)C2)cc(C(C)(C)C)c1O    2.30
CC(C)(C)c1cc(C(=O)N2CC(O)C2)cc(C(C)(C)C)c1    3.26
CC1C(O)CN1C(=O)c1cc(C(C)(C)C)c(O)c(C(C)(C)C)c1 (stereo not drawn)    3.57
CC(C)(C)c1cc(C(=O)N2CC(O)C2)cc2c1OCC2(C)C    2.78
CC1(O)CN(C(=O)c2cc(C(C)(C)C)c(O)c(C(C)(C)C)c2)C1    3.55

Then there is this compound:
What log10(IC50) value was documented for this compound, `CC(C)(C)c1cc(C(=O)N2CC(O)C2)cc(C(C)(C)C)c1O` ?
3.18

----------
Recorded measurements of pIC50, one per entry
Target: Cox-2 (Homo sapiens, UniProt P35354)
Construct: 0.5 ml of fresh human blood
Sequence (P35354 18-604): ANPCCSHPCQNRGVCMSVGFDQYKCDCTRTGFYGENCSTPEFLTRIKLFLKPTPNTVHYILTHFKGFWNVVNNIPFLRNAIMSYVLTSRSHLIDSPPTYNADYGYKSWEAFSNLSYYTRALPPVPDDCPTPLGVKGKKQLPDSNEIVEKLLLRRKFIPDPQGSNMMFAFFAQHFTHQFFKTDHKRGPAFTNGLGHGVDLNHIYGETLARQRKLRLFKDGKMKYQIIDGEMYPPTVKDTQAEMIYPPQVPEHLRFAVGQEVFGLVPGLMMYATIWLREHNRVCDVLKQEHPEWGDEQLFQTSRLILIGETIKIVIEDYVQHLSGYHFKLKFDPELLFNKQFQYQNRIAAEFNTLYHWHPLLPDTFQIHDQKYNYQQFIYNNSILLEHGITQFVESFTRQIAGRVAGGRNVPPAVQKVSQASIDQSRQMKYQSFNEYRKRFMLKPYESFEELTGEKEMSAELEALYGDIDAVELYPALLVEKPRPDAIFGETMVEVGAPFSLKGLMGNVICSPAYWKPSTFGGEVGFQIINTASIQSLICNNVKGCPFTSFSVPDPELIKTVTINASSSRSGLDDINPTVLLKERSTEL
Experiment: Cox-2 activity in human whole blood (LPS, PGE2)
Settings: read-out: hWB inhibition COX-2 IC50
Note on units: pIC50 is unitless, being -log10 of a concentration expressed in mol/L.

CC1(O)CN(C(=O)c2cc(C(C)(C)C)c(O)c(C(C)(C)C)c2)C1    7.00
CC(C)(C)c1cc(C(=O)N2CC(O)C2)cc2c1OCC2(C)C    7.00
CC(C)(C)c1cc(C(=O)N2CC(O)C2)cc(C(C)(C)C)c1    6.10
CC(C)(C)c1cc(C(=O)N2CC(O)C2)cc(C(C)(C)C)c1O    6.70

Then there is this molecule:
What pIC50 value was documented for this molecule, CC1C(O)CN1C(=O)c1cc(C(C)(C)C)c(O)c(C(C)(C)C)c1 (centres unmarked) ?
6.30

----------
Molecular target: UniProt P23219
Sequence (P23219 24-599): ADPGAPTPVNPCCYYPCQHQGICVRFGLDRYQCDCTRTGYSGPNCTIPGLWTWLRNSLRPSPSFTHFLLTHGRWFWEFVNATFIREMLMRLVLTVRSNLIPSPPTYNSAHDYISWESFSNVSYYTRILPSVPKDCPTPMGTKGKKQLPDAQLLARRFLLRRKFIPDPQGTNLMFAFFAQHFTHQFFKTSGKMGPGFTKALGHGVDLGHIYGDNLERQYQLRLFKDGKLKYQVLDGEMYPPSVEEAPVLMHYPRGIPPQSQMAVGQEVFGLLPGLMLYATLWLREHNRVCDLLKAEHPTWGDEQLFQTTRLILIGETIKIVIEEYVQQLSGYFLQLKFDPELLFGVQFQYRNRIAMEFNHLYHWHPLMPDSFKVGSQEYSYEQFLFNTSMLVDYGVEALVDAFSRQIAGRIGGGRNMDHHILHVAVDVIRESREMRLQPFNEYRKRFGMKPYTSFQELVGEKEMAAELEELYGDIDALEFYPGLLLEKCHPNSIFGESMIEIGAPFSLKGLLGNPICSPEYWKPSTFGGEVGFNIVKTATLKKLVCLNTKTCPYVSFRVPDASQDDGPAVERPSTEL
Assay: Cox-1 activity in human whole blood (TXB2)
Details: read-out: hWB inhibition COX-1 IC50
Method: II. Determination of Cox-1- and Cox-2-Activity in Human Whole Blood The Cox-1- and Cox-2-activity in human whole blood is determined according to a modification of the method described in the publication of C. […] Tromboxane B2 (TXB2) concentration is quantified using an assay kit (Caymann Chemical, Ann Arbor, Mich., U.S.A., Catalogue number 519031) after reconstitution into 300 μl assay buffer supplied in the assay kit.
Recorded measurements of pIC50, one per entry
Note on units: pIC50 is unitless, being -log10 of a concentration expressed in mol/L.

Examples with their reported pIC50 follow.
CC1C(O)CN1C(=O)c1cc(C(C)(C)C)c(O)c(C(C)(C)C)c1 (centres unmarked)    6.30
CC(C)(C)c1cc(C(=O)N2CC(O)C2)cc(C(C)(C)C)c1    6.30
CC(C)(C)c1cc(C(=O)N2CC(O)C2)cc(C(C)(C)C)c1O    7.00
CC1(O)CN(C(=O)c2cc(C(C)(C)C)c(O)c(C(C)(C)C)c2)C1    7.00

What pIC50 value was documented for this compound, `CC(C)(C)c1cc(C(=O)N2CC(O)C2)cc2c1OCC2(C)C` ?
7.30
